B1: GLTSCR2 (parent)
chain: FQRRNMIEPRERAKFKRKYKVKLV

Variants of: B1
Test: protein stability index of a GFP-peptide fusion (GPS, HEK-293T) (PSI 1-6); higher = more stable;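 further: lentivirally expressed fusions sorted by FACS into six bins by GFP to DsRed ratio, PSI derived from sequencing read proportions per bin multiplied by bin number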
Details: c terminus: a fixed tail appended
Field: protein stability index. Provide a value for each of the variants that follow.
// keep it numeric: no unit symbol after the value

Asked: // protein stability index lookup, key: FQRRNMIEPHERAKFKRKYKVKLV [R10H]
Given back: 1.95

Asked: Record: FQRRNMIEPRERAKFKRKYKVKWV [L23W]
Given back: 2.15

Asked: Could you do the same for FYRRNMIEPRERAKFKRKYKVKLV [Q2Y] , please?
Given back: 2.08

Asked: Then this variant: FQRCNMIEPRERAKFKRKYKVKLV [R4C]
Given back: 2.02

Asked: Same question, FQRRNMIEPRERAKFKRKYKIKLV [V21I] this time
Given back: 2.35

Asked: Could you do the same for DQRRNMIEPRERAKFKRKYKVKLV [F1D] , please?
Given back: 2.83

Asked: // repeat for FQRRNMIEPRERAKFKRKYKNKLV [V21N] and report
Given back: 2.87

Asked: Next record, please: FQRRNMIEPRQRAKFKRKYKVKLV [E11Q]
Given back: 2.25

Asked: Entry to check: FQRRNMIEPRERAKFKRKYKVKLG [V24G]
Given back: 2.45

Asked: Then this variant: FQRRNMIEPRERAKFKREYKVKLV [K18E]
Given back: 2.39

Asked: What do you have for FQRRNMIEPRERAKFKRKYKVKLM [V24M] ?
Given back: 2.25

Asked: Here is the next variant: FQRRNMIEPRERAVFKRKYKVKLV [K14V]
Given back: 2.17

Asked: Now try FQRRKMIEPRERAKFKRKYKVKLV [N5K] .
Given back: 2.42

Asked: Same question for FQRRNMIEPEERAKFKRKYKVKLV [R10E] please.
Given back: 1.98

Asked: What about FQRRNMIEPRERAKFKRKMKVKLV [Y19M] ?
Given back: 2.75

Asked: Same read-out for FQRRNMIEPRERAKFKRKTKVKLV [Y19T] ?
Given back: 2.37

Asked: Same again, this time with FQRRNMIEPCERAKFKRKYKVKLV [R10C]
Given back: 3.03

Asked: Proceed to FQRRNMIEPIERAKFKRKYKVKLV [R10I]
Given back: 2.11

Asked: Try the variant FQRRNMIEPRERAKFKRKYKVNLV [K22N]
Given back: 2.6

Asked: Query FQRRNMIEPRTRAKFKRKYKVKLV [E11T] next
Given back: 2.59

Asked: Now give it for FQRRNMIEPRERAKFKRKEKVKLV [Y19E] too.
Given back: 3.15

Asked: Next entry: FQRRNMIEPRERAKAKRKYKVKLV [F15A]
Given back: 2.65

Asked: Repeat with FQRRNMIEPRERAKFKRKYKFKLV [V21F]
Given back: 2.55

Asked: And what about the variant FQRRNMIFPRERAKFKRKYKVKLV [E8F] ?
Given back: 1.82

Asked: Then this variant: FQRRNRIEPRERAKFKRKYKVKLV [M6R]
Given back: 2.92

Asked: How about FQRRNMIEPRERAKFKRKNKVKLV [Y19N] ?
Given back: 2.94

Asked: Repeat with FQRRNMIEPRKRAKFKRKYKVKLV [E11K]
Given back: 2.41

Asked: // next record FQRRNMIEPRERAKFKRKYAVKLV [K20A]
Given back: 3.25

Asked: Continue with AQRRNMIEPRERAKFKRKYKVKLV [F1A]
Given back: 3.04

Asked: Another variant to look at: FQRRNMIEPRERSKFKRKYKVKLV [A13S]
Given back: 2.32

Asked: Next up: FQPRNMIEPRERAKFKRKYKVKLV [R3P]
Given back: 1.96

Asked: // query: FQRRNMEEPRERAKFKRKYKVKLV [I7E]
Given back: 2.22

Asked: Param item: FQRRNMIEPRDRAKFKRKYKVKLV [E11D]
Given back: 2.53

Asked: Please answer likewise for FQRRNMIEPRERAKFKRKYLVKLV [K20L]
Given back: 2.08

Asked: Another: FQRRNMIEPRERAKFKRKYKLKLV [V21L]
Given back: 2.28

Asked: // next record FQRRNMIEPRERAKFKRKYKCKLV [V21C]
Given back: 2.97

Asked: Repeat for the following variant: FQRREMIEPRERAKFKRKYKVKLV [N5E]
Given back: 3.05

Asked: Then this variant: FQRRNMIEPRERAKFKRKYSVKLV [K20S]
Given back: 2.74

Asked: Now consider FQRRNIIEPRERAKFKRKYKVKLV [M6I] and answer again.
Given back: 2.25

Asked: How about FQRRNMIEPRERAKTKRKYKVKLV [F15T] ?
Given back: 2.66

Asked: Also FQRRNMIEPRVRAKFKRKYKVKLV [E11V] , if possible.
Given back: 1.88

Asked: Note, next up: FQRRNMIHPRERAKFKRKYKVKLV [E8H]
Given back: 2.33

Asked: # iterate: NQRRNMIEPRERAKFKRKYKVKLV [F1N]
Given back: 2.59

Asked: Same thing, different variant: FSRRNMIEPRERAKFKRKYKVKLV [Q2S]
Given back: 2.43

Asked: Let us now turn to FQRRNMIEPRERAKFKRKCKVKLV [Y19C]
Given back: 2.65

Asked: Moving on to the next variant: FQRRNMIEPRERAKFIRKYKVKLV [K16I]
Given back: 2.64

Asked: Field entry: FQRTNMIEPRERAKFKRKYKVKLV [R4T]
Given back: 2.6

Asked: Input FQRRNMIEPRERAKWKRKYKVKLV [F15W]
Given back: 2.12

Asked: Now this one: FQRRNMIEPRERAKFRRKYKVKLV [K16R]
Given back: 2.73

Asked: One more variant: FQRRNTIEPRERAKFKRKYKVKLV [M6T]
Given back: 3.15

Asked: Also, FQRRNMIEPREFAKFKRKYKVKLV [R12F] please.
Given back: 1.47

Asked: Next variant: FQRRNMIEPRERAKFKRKYKKKLV [V21K]
Given back: 3.29

Asked: One more variant: FQRRNMIEPRERAKFKRKYKVDLV [K22D]
Given back: 2.27

Asked: Same question, FQRRYMIEPRERAKFKRKYKVKLV [N5Y] this time
Given back: 2.33

Asked: Again, but for FQRRNMIIPRERAKFKRKYKVKLV [E8I]
Given back: 2.02

Asked: Now this one: FQRRNMIEPTERAKFKRKYKVKLV [R10T]
Given back: 1.99

Asked: Can you check FQRLNMIEPRERAKFKRKYKVKLV [R4L] next?
Given back: 2.51

Asked: Same question for FQRRNMIEPRERAKFKCKYKVKLV [R17C] please.
Given back: 2.18

Asked: Also check FQRRNMVEPRERAKFKRKYKVKLV [I7V]
Given back: 2.24

Asked: Check FQKRNMIEPRERAKFKRKYKVKLV [R3K] too.
Given back: 2.6

Asked: Try the variant FARRNMIEPRERAKFKRKYKVKLV [Q2A]
Given back: 1.99

Asked: Now give it for FMRRNMIEPRERAKFKRKYKVKLV [Q2M] too.
Given back: 2.7

Asked: Then what about the variant FQRRNMIEPRERRKFKRKYKVKLV [A13R] ?
Given back: 2.72

Asked: # iterate: FQRRNMIEPRPRAKFKRKYKVKLV [E11P]
Given back: 2.66

Asked: What do you have for FQRRNMGEPRERAKFKRKYKVKLV [I7G] ?
Given back: 2.35

Asked: Try RQRRNMIEPRERAKFKRKYKVKLV [F1R] next.
Given back: 3.03

Asked: Can you check FQRRNMIEPRERAKFKRMYKVKLV [K18M] next?
Given back: 2.22

Asked: Try this variant too: FQRRNWIEPRERAKFKRKYKVKLV [M6W]
Given back: 3.61
